Values from PubChem BioAssay (NCI)

# reported growth; entries follow
- Test system: EKVX NSCLC
- Run description: NCI-60 one-dose screen, 48 h (100 = growth as untreated, 0 = no growth, -100 = all killed)
- Experimental parameters: 10 µM unless noted
About 83,000 compounds went through this panel and 20% of them were active in at least one assay; those are over-represented in the sample as a whole. Calls of active or inactive are those of the source. How the source made its calls: active means growth percent below 10; inactive means the rest.
Assay metric: growth

> print(dat)
                                   compound  target.system        meas.value
1  O=S(=O)(NCCCNc1nccc(-c2c(-c3cccc(F)c3)nc3occn23)n1)c1ccc(F)cc1     EKVX NSCLC  54.3% (inactive)
2          CCOC(=O)C(Cc1ccc(OC)cc1)C(=O)OCC     EKVX NSCLC  69.3% (inactive)
3  Nc1[nH]c(=S)nc2oc(-c3ccccc3)c(-c3ccccc3)c12     EKVX NSCLC    98% (inactive)
4  CN(Cc1cnc2nc(N)nc(N)c2n1)c1ccc(C(=O)NC(CCC(=O)O)C(=O)O)cc1Br (centres undefined)     EKVX NSCLC  67.6% (inactive)
5  CC/C=C\C[C@H](O)C/C=C1/C(=O)C=C[C@@H]1C/C=C\CCCC(=O)O     EKVX NSCLC   105% (inactive)
6  CNC(=O)c1cc(Oc2cccc3nc(NC(=O)Nc4cc(C(F)(F)F)ccc4Cl)ccc23)ccn1     EKVX NSCLC  99.5% (inactive)
7  O=c1c2c3c(sc2n2c(-c4cc(-c5ccccc5)no4)nnc2n1Cc1ccccc1)CCCC3     EKVX NSCLC    80% (inactive)
8  FC(F)(F)Oc1cccc(-c2cnc3ccc(-c4ccncc4)nn23)c1     EKVX NSCLC  28.4% (inactive)
9  O=C(CCCCCCN1CC(=O)N2[C@H](c3ccc(Cl)cc3)c3[nH]c4ccccc4c3C[C@@H]2C1=O)NO     EKVX NSCLC  65.7% (inactive)
